Collected set of IC50 measured with Epidermal growth factor receptor (Homo sapiens, UniProt P00533) across studies.

Use these answered entries as a reference point.
[
  {
    "compound": "C=CC(=O)Nc1cc(-c2c(-c3ccc(F)c(C(=O)N4CCOCC4)c3)[nH]c3nccc(Cl)c23)ccc1C",
    "IC50": "500 to 1000 nM"
  },
  {
    "compound": "CN1CCN(Cc2ccc3[nH]/c(=N\\C(=O)c4ccnc(OCc5cccc(O)c5C=O)c4)n(CC(C)(C)O)c3c2)CC1",
    "IC50": "> 1000 nM"
  },
  {
    "compound": "CCNc1nc(-c2cc(C)cc(OC)c2)c(-c2ccnc(Nc3ccc(N4CCOCC4)c(F)c3)n2)s1",
    "IC50": "> 1000 nM"
  }
]

[Q] State the recorded IC50 for this entry: CC#CC(=O)N1CC[C@@H](n2nc(-c3ccc(C(=O)Nc4cc(C#N)ccn4)cc3)c3c(N)ncnc32)C1
[A] > 1000 nM

[Q] State the recorded IC50 for this entry: C=CC(=O)Nc1cc(-c2c(-c3ccc(N4CCOCC4)nc3)[nH]c3nccc(Cl)c23)ccc1C
[A] ≤ 100 nM

[Q] State the recorded IC50 for this entry: C#Cc1c(F)ccc(Nc2ncnc3cc(OC)cc(OC4CCN(C)CC4(F)F)c23)c1F (racemic)
[A] < 10 nM

[Q] State the recorded IC50 for this entry: CC(C)c1nc(-c2cccc(NS(=O)(=O)c3c(F)cccc3F)c2)c(-c2ccnc(Nc3ccc(N4CCCNCC4)nc3)n2)s1
[A] < 100 nM

[Q] State the recorded IC50 for this entry: C(=NNc1ncnc2nn3ccccc3c12)c1c[nH]c2ccccc12
[A] 1000 to 10000 nM

[Q] State the recorded IC50 for this entry: CCc1cc(Nc2ncc(Br)c(Nc3ccc(-c4ccccc4)cc3P(C)(C)=O)n2)c(OC)cc1N1CCC(N2CCOCC2)CC1
[A] 43 nM

[Q] State the recorded IC50 for this entry: NS(=O)(=O)c1ccc(Nc2nc3ncnc(Nc4ccc(Br)cc4F)c3s2)cc1
[A] 87 nM

[Q] State the recorded IC50 for this entry: Cc1nn(CCO)c2c1/C=C/c1n[nH]c3ccc(cc13)-c1cnn(C)c1OCCCO2
[A] 158 nM

[Q] State the recorded IC50 for this entry: C=CC(=O)Nc1cccc(Nc2cc(Oc3cccc(OC)c3)ncn2)n1
[A] ≤ 10 nM

----------
Collected set of IC50 measured with Epidermal growth factor receptor (Homo sapiens, UniProt P00533) across studies.

Use these answered entries as a reference point.
[
  {
    "compound": "Cc1cccc(Nc2cc(Nc3cccc(NC(=O)/C=C/CN(C)C)c3)ncn2)c1",
    "target-of-assay": "Epidermal growth factor receptor (Homo sapiens, UniProt P00533)",
    "IC50": "≤ 0.01 µM"
  },
  {
    "compound": "Cc1ccnc(NC(=O)c2ccc(Oc3ccnc4[nH]nc(N[C@@H]5CCCN(C(=O)C6(C)CCN(C(=O)OC(C)(C)C)CC6)C5)c34)cc2)c1",
    "target-of-assay": "Epidermal growth factor receptor (Homo sapiens, UniProt P00533)",
    "IC50": "> 10 µM"
  },
  {
    "compound": "CCOc1nn([C@@H](C)CO)c2c1/C=C/c1n[nH]c3cc(F)c(cc13)-c1cnn(C)c1OC[C@H](C)N(C(C)C)C2",
    "target-of-assay": "Epidermal growth factor receptor (Homo sapiens, UniProt P00533)",
    "IC50": "0.0527 µM"
  },
  {
    "compound": "CCOC(=O)C1CCCC(n2nc(-c3ccc(CNC(=O)c4ccccc4OC)cc3)c3c(N)ncnc32)C1 (stereo not drawn)",
    "target-of-assay": "Epidermal growth factor receptor (Homo sapiens, UniProt P00533)",
    "IC50": "0.1 to 1 µM"
  },
  {
    "compound": "C#Cc1cccc(Nc2ncnc3nc(Nc4ccc(S(=O)(=O)N(CCOC)CCOC)cc4)sc23)c1",
    "target-of-assay": "Epidermal growth factor receptor (Homo sapiens, UniProt P00533)",
    "IC50": "0.0253 µM"
  },
  {
    "compound": "COc1cc(N2CCN(CCS(C)(=O)=O)CC2)c(C)cc1Nc1nccc(-c2sc(C(C)C)nc2-c2cccc(NS(=O)(=O)c3c(F)cccc3F)c2F)n1",
    "target-of-assay": "Epidermal growth factor receptor (Homo sapiens, UniProt P00533)",
    "IC50": "< 0.1 µM"
  },
  {
    "compound": "Cc1ccc(Oc2ccc(Nc3ncnc4sc5c(c34)C(C)CN(C(=O)C=CCN(C)C)C5)cc2C)cn1 (single isomer, unassigned)",
    "target-of-assay": "Epidermal growth factor receptor (Homo sapiens, UniProt P00533)",
    "IC50": "> 10 µM"
  },
  {
    "compound": "C#Cc1cccc(Nc2ncnc3nc(Nc4ccc(CNC[C@H]5CCCO5)cc4)sc23)c1",
    "target-of-assay": "Epidermal growth factor receptor (Homo sapiens, UniProt P00533)",
    "IC50": "0.00396 µM"
  }
]

[Q] Value wanted: IC50 (Epidermal growth factor receptor (Homo sapiens, UniProt P00533)) of entry O=C(O)C(CS)NCc1ccc(-c2ccc3ncnc(Nc4ccc(OCc5cccc(F)c5)c(Cl)c4)c3c2)o1 (stereo not drawn)
[A] < 10 µM

[Q] Value wanted: IC50 (Epidermal growth factor receptor (Homo sapiens, UniProt P00533)) of entry CC(C)c1ccc(N2CC(CS(C)(=O)=O)C2)c2cnc(Nc3ccnc(-c4cccc(-c5cccc(O)c5C=O)c4)n3)cc12
[A] > 1 µM

[Q] Value wanted: IC50 (Epidermal growth factor receptor (Homo sapiens, UniProt P00533)) of entry C=CC(=O)Nc1cc(-c2c(-c3cccc(CN4CCN(C(C)=O)CC4)c3)[nH]c3ncccc23)ccc1C
[A] 0.1 to 0.5 µM

[Q] Value wanted: IC50 (Epidermal growth factor receptor (Homo sapiens, UniProt P00533)) of entry CN(C/C=C/C(=O)N1CC[C@@H](Nc2n[nH]c3nccc(Oc4ccc(C(=O)Nc5ncc[nH]5)cc4)c23)C1)C1CC1
[A] > 10 µM

----------
Collected set of pIC50 measured with Epidermal growth factor receptor (Homo sapiens) across studies.
pIC50: −log10 of the molar value.

[
  {
    "compound": "Cc1cccc2nc(-c3ccc(Oc4ccnc5[nH]nc(N[C@@H]6CCCN(C(=O)C7CCN(C)CC7)C6)c45)cc3)oc12",
    "pIC50": "< 5.00"
  },
  {
    "compound": "C=CC(=O)Nc1cccc(N2C(=O)N(C)Cc3cnc(Nc4ccc(N5CCC(N6CCN(C)CC6)CC5)cc4)nc32)c1",
    "pIC50": "≥ 8.00"
  }
]

[Q] State the recorded pIC50 for this entry: CN1CCN(C/C=C/C(=O)N2CCOc3c2ccc2ncnc(Nc4ccc(OCc5ccccn5)c(Cl)c4)c32)CC1
[A] ≥ 7.30

[Q] State the recorded pIC50 for this entry: O=C(/C=C/CN1CC2CC1CO2)N1CCc2c(sc3ncnc(Nc4ccc(Oc5ccc6ncnn6c5)c(Cl)c4)c23)C1 (centres unmarked)
[A] 5.00 to 6.00

----------
pIC50: −log10 of the molar value.
Collected set of pIC50 measured with Epidermal growth factor receptor (Homo sapiens) across studies.

[
  {
    "compound": "COc1cc(N(C)CCN(C)C)c(NC(C)=O)cc1Nc1nccc(-c2cn(Cc3ccc(C=O)c(O)c3)c3ccccc23)n1",
    "target-of-assay": "Epidermal growth factor receptor (Homo sapiens)",
    "property-measured": "pIC50",
    "result": "< 6.00"
  },
  {
    "compound": "CC(Nc1c(C#N)cnc2ccc(-c3cnc4[nH]ncc4c3)cc12)c1ccccc1 (stereo not shown)",
    "target-of-assay": "Epidermal growth factor receptor (Homo sapiens)",
    "property-measured": "pIC50",
    "result": "7.70 to 8.70"
  },
  {
    "compound": "C=CC(=O)N1CCOc2c1ccc1ncnc(Oc3ccc(Oc4ccc(F)cc4)cc3)c21",
    "target-of-assay": "Epidermal growth factor receptor (Homo sapiens)",
    "property-measured": "pIC50",
    "result": "≥ 7.30"
  }
]

Alright, here's another compound for you.
[Q] Value wanted: pIC50 (Epidermal growth factor receptor (Homo sapiens)) of entry Cc1ccc(Oc2ccc(Nc3ncnc4sc5c(c34)CCN(C(=O)/C=C/CN(C)C(C)(C)C)C5)cc2C)cn1
[A] < 5.00
